Where these numbers come from: PubChem BioAssay (NCI)

# Assay Explanation: NCI Yeast Anticancer Drug Screen. Data for the sgs1 mgt1 strain (AID 161);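 further: 0% = growth of cultures given vehicle only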
# Experimental Parameters: S. cerevisiae sgs1 mgt1 strain, active compounds read high; at 50.0 µM unless noted
About 79,000 compounds went through this panel and 15% of them were active in at least one assay; those are over-represented in the sample as a whole.
Reported values of growth inhibition for individual entries
Numeric only. Scale: %

Take a look at these entries with their results.
>  <Compound Structure String>
CCOc1cc(C=O)c2c(ccc3ccc(OC)c(OC)c32)c1OC

>  <Measure Name>
growth inhibition

>  <Experimental Result>
84.7

$$$$
>  <Compound Structure String>
CCOC(=O)c1ccc(N=Cc2ccc(N(CCC#N)CCC#N)cc2)cc1

>  <Measure Name>
growth inhibition

>  <Experimental Result>
-7.25

$$$$
>  <Compound Structure String>
COc1ccc(/C=C2\CN(CCCC(=O)O)C(=O)C2=O)cc1

>  <Measure Name>
growth inhibition

>  <Experimental Result>
0

$$$$
>  <Compound Structure String>
CC(=O)CC(=O)c1ccc(C(=O)CC(C)=O)cc1.[Fe]

>  <Measure Name>
growth inhibition

>  <Experimental Result>
-8.3

$$$$

Now, please, on to the next compound.
Prompt: Quote growth inhibition reported for C/C(=C\C(=O)c1ccc(Sc2ccccc2)cc1)c1ccc(Sc2ccccc2)cc1 please.
Response: 6.15
